target: GSK3B (Homo sapiens); assay: DSF; type: binding; set-up: purchased in-house DSF panel (SGC Frankfurt); conditions: 10 μM compound
Below, each of the molecules is paired with its reported ΔTm at 10 µM value.
Report only the number, with the unit °C understood.

Previously resolved entries follow.
                                   molecule         system_tested    observable  measure_unit  test_value
0  CC(C)(C)OC(=O)NCCc1ccc(Nc2ncc(Cl)c(Nc3cc(C4CC4)n[nH]3)n2)cc1 [13a]  GSK3B (Homo sapiens)  ΔTm at 10 µM            °C         4.6
1  CC(C)(C)OC(=O)NCCc1ccc(Nc2nccc(Nc3cc(C(C)(C)C)n[nH]3)n2)cc1 [40a]  GSK3B (Homo sapiens)  ΔTm at 10 µM            °C         5.7

Form field: reported ΔTm at 10 µM of CC(C)(C)OC(=O)NCCCCCNc1nccc(Nc2cc(C(=O)OC(C)(C)C)[nH]n2)n1 [43b] 6.6

Returns the measured ΔTm at 10 µM for the input molecule. Input: COC(=O)c1cc(Nc2nc(Nc3ccc(CCNC(=O)OC(C)(C)C)cc3)ncc2Cl)[nH]n1 [22a] 3.3

What measured ΔTm at 10 µM goes with CC(C)(C)OC(=O)NCCCCCNc1nccc(Nc2cc(C(C)(C)C)n[nH]2)n1 [40b] ? 4.9

Requested read-out: ΔTm at 10 µM. Entry: COC(=O)c1cc(Nc2ccnc(NCc3ccc(NC(=O)OC(C)(C)C)cc3)n2)[nH]n1 [21i] 7.2

Which ΔTm at 10 µM is reported for this molecule? COC(=O)c1cc(Nc2nc(NCCCCCCNC(=O)OC(C)(C)C)ncc2Cl)[nH]n1 [22e] 2.9

Look up ΔTm at 10 µM for this molecule: CC(C)(C)OC(=O)Nc1ccc(CNc2nccc(Nc3cc(C(=O)OC(C)(C)C)[nH]n3)n2)cc1 [43d] 2.9

###

target: CDK16 (Homo sapiens, UniProt Q00536); construct: purchased in-house DSF panel (SGC Frankfurt); test: DSF; assay type: binding; conditions: 10 μM compound
Sequence (Q00536 163-478): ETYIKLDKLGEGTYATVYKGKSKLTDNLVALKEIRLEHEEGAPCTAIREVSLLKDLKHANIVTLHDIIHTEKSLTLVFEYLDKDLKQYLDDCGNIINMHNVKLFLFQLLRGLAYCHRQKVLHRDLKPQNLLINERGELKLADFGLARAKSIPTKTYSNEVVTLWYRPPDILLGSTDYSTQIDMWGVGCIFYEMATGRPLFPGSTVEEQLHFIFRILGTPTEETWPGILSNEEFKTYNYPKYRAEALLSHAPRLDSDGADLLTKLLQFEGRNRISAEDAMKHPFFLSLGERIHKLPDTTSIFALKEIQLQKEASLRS
Observable: ΔTm at 10 µM
Express your answer as a number followed by its unit.

# example entries with known answers
>>> print(df.to_string())
                                   molecule    observable  test_value
0  Cc1cc(Nc2ccnc(NCCCCCNC(=O)OC(C)(C)C)n2)[nH]n1 [38b]  ΔTm at 10 µM      5.8 °C
1  CNC(=O)c1cc(Nc2ccnc(NCCCCCNC(=O)OC(C)(C)C)n2)[nH]n1 [41b]  ΔTm at 10 µM      1.5 °C
2  COC(=O)c1cc(Nc2ccnc(NCCCCCNC(=O)OC(C)(C)C)n2)[nH]n1 [21c]  ΔTm at 10 µM      8.5 °C
3  CNC(=O)c1cc(Nc2ccnc(Nc3ccc(CCNC(=O)OC(C)(C)C)cc3)n2)[nH]n1 [41a]  ΔTm at 10 µM      0.9 °C
4  CNC(=O)c1cc(Nc2ccnc(Nc3ccc(CC#N)cc3)n2)[nH]n1 [41c]  ΔTm at 10 µM      1.4 °C

Find the recorded ΔTm at 10 µM belonging to COC(=O)c1cc(Nc2ccnc(NCCCCCCNC(=O)OC(C)(C)C)n2)[nH]n1 [21e] and report it. 8.5 °C

###

Each entry below lists one item and its recorded ΔTm at 10 µM value.
molecular target: GSK3B (Homo sapiens, UniProt P49841); experiment: DSF; format: binding; design: purchased in-house DSF panel (SGC Frankfurt); conditions: 10 μM compound
Sequence (P49841 35-386): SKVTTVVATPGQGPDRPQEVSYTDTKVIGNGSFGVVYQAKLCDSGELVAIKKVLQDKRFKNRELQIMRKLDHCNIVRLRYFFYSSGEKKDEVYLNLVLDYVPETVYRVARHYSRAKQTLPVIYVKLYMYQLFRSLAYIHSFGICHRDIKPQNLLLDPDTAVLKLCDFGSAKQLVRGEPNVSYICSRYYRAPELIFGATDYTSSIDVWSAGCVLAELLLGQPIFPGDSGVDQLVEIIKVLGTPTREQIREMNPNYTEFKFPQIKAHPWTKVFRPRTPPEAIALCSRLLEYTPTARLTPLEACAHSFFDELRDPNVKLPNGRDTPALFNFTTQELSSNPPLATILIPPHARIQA
Don't forget the unit after the value.

The following molecules have reported results that may help.
                                   molecule                         system_tested    observable  test_value
0  Cc1cnc(NCCCCCNC(=O)OC(C)(C)C)nc1Nc1cc(C2CC2)n[nH]1 [12c]  GSK3B (Homo sapiens, UniProt P49841)  ΔTm at 10 µM      6.1 °C
1  COC(=O)c1cc(Nc2ccnc(Nc3ccc(CC#N)cc3)n2)[nH]n1 [21f]  GSK3B (Homo sapiens, UniProt P49841)  ΔTm at 10 µM     12.3 °C
2  COC(=O)c1cc(Nc2nc(Nc3cccc(CCNC(=O)OC(C)(C)C)c3)ncc2Cl)[nH]n1 [22b]  GSK3B (Homo sapiens, UniProt P49841)  ΔTm at 10 µM      3.9 °C

Now, please, on to the next molecule.
# get_value(readout='ΔTm at 10 µM', item= COC(=O)c1cc(Nc2ccnc(NCCOCCNC(=O)OC(C)(C)C)n2)[nH]n1 [21d] ) 6.2 °C

###

target: GSK3B (Homo sapiens, UniProt P49841); assay: DSF; format: binding; design: purchased in-house DSF panel (SGC Frankfurt); settings: 10 μM compound
Catalogue of molecules with associated ΔTm at 10 µM
# unit: °C | format: bare number

Recorded results for 5 molecules are shown here.
                                   molecule  test_value
0  Cc1cnc(NCCOCCNC(=O)OC(C)(C)C)nc1Nc1cc(C2CC2)n[nH]1 [12d]         6.6
1  COC(=O)c1cc(Nc2ccnc(Nc3cccc(CCNC(=O)OC(C)(C)C)c3)n2)[nH]n1 [21b]         8.6
2  COC(=O)c1cc(Nc2nc(Nc3ccc(CCNC(=O)OC(C)(C)C)cc3)nc3ccccc23)[nH]n1 [23a]           1
3  COC(=O)c1cc(Nc2nc(Nc3cccc(CCNC(=O)OC(C)(C)C)c3)nc3ccccc23)[nH]n1 [23b]         1.4
4  COC(=O)c1cc(Nc2nc(NCCCCCNC(=O)OC(C)(C)C)nc3ccccc23)[nH]n1 [23c]         4.2

Which ΔTm at 10 µM reading was recorded for the molecule CC(C)OC(=O)c1cc(Nc2ccnc(NCCCCCNC(=O)OC(C)(C)C)n2)n[nH]1 [42b] ? 7.8

###

biological target: CDK16 (Homo sapiens, UniProt Q00536); construct: purchased in-house DSF panel (SGC Frankfurt); experiment: DSF; type: binding; conditions: 10 μM compound
Observable: ΔTm at 10 µM (°C)
Express your answer in °C, writing the number without its unit.

In [3]: df
Out[3]:
                                   compound  test_value
0  CC(C)(C)OC(=O)Nc1ccc(CNc2nccc(Nc3cc(C(=O)OC(C)(C)C)[nH]n3)n2)cc1 [43d]         9.2
1  CC(C)(C)OC(=O)NCCc1ccc(Nc2nccc(Nc3cc(C4CC4)n[nH]3)n2)cc1 [11a]         8.7
2  COC(=O)c1cc(Nc2ccnc(NCc3ccc(N)cc3)n2)n[nH]1         5.6

Hi! What's the reported ΔTm at 10 µM for CC(C)OC(=O)c1cc(Nc2ccnc(NCCCCCNC(=O)OC(C)(C)C)n2)n[nH]1 [42b] on CDK16 (Homo sapiens, UniProt Q00536)? 9.1

Request: ΔTm at 10 µM, test system CDK16 (Homo sapiens, UniProt Q00536), entry Cc1cnc(NCCCCCCNC(=O)OC(C)(C)C)nc1Nc1cc(C2CC2)n[nH]1 [12e] 6.3

Please tell me: ΔTm at 10 µM of Cc1cnc(NCCOCCNC(=O)OC(C)(C)C)nc1Nc1cc(C2CC2)n[nH]1 [12d] , system CDK16 (Homo sapiens, UniProt Q00536)? 5.8

###

biological target: GSK3B (Homo sapiens, UniProt P49841); test: DSF; assay type: binding; set-up: purchased in-house DSF panel (SGC Frankfurt); conditions: 10 μM compound
Observable: ΔTm at 10 µM (°C)
Please give a number only; it is taken to be in °C.

>>> print(df.to_string())
                                   compound                         system_tested    observable  measure_unit  test_value
0  CC(C)(C)OC(=O)NCCCCCCNc1nccc(Nc2cc(C3CC3)n[nH]2)n1 [11e]  GSK3B (Homo sapiens, UniProt P49841)  ΔTm at 10 µM            °C         6.8

Need ΔTm at 10 µM of CC(C)(C)OC(=O)NCc1ccc(CNc2nccc(Nc3cc(C4CC4)n[nH]3)n2)cc1 [11f] , thanks. 6.3

# query: ΔTm at 10 µM of entry COC(=O)c1cc(Nc2nc(NCCCCCNC(=O)OC(C)(C)C)ncc2Cl)[nH]n1 [22c] 4.8

What does the data say about its ΔTm at 10 µM? Entry: Cc1cc(Nc2ccnc(Nc3ccc(CCNC(=O)OC(C)(C)C)cc3)n2)[nH]n1 [38a] 10.4

Which ΔTm at 10 µM is reported for this compound? COC(=O)c1cc(Nc2ccnc(Nc3ccc(CCNC(=O)OC(C)(C)C)cc3)n2)[nH]n1 [21a] 7.8

For the compound shown here, CC(C)(C)OC(=O)NCCc1ccc(Nc2nccc(Nc3cc(C4CC4)n[nH]3)n2)cc1 [11a] , give the reported ΔTm at 10 µM. 8.2

Recorded ΔTm at 10 µM for COC(=O)c1cc(Nc2ccnc(Nc3ccc(CNC(=O)OC(C)(C)C)cc3)n2)[nH]n1 [21h] , please? 6

I would be grateful if you could share the reported ΔTm at 10 µM for CNC(=O)c1cc(Nc2ccnc(Nc3ccc(CC#N)cc3)n2)[nH]n1 [41c] . 9.3

Param item = COC(=O)c1cc(Nc2ccnc(NCc3ccc(CNC(=O)OC(C)(C)C)cc3)n2)[nH]n1 [21g] ; retrieve measured ΔTm at 10 µM. 7.7

Fill in: ΔTm at 10 µM of CC(C)OC(=O)c1cc(Nc2ccnc(NCc3ccc(NC(=O)OC(C)(C)C)cc3)n2)n[nH]1 [42d] is ___ 4.7
